Observed IC50, system MMP-9 (Homo sapiens).
Answers are plain numbers, in µM.

Report IC50 for every entry below.
1. [Ru+2].c1ccc(-c2ccccn2)nc1.c1ccc(-c2ccnc3c2ccc2c(-c4ccccc4)ccnc23)cc1.c1ccc(-c2ccnc3c2ccc2c(-c4ccccc4)ccnc23)cc1 [[Ru(dip)2(bpy)]^2+]
2. [Ru+2].c1ccc(-c2ccnc3c2ccc2c(-c4ccccc4)ccnc23)cc1.c1ccc(-c2ccnc3c2ccc2c(-c4ccccc4)ccnc23)cc1.c1ccc(-c2ccnc3c2ccc2c(-c4ccccc4)ccnc23)cc1 [[Ru(dip)3]^2+]

1: 6.2; 2: 4.1

Value source: paper PMC8538513
